experiment: Oral bioavailability in Sprague-Dawley rat at 50 mg/kg; assay type: ADME, organism-based; details: in vivo
Observable: bioavailability
State the value with its unit after it.

Item: CO[C@H]1/C=C/O[C@@]2(C)Oc3c(C)c(O)c4c(c3C2=O)C2=NC3(CCN(CCn5c([N+](=O)[O-])cnc5C)CC3)NC2=C(NC(=O)/C(C)=C\C=C\[C@H](C)[C@H](O)[C@@H](C)[C@@H](O)[C@@H](C)[C@H](OC(C)=O)[C@@H]1C)C4=O | bioavailability: 48%

----------
test: Drug distribution in Sprague-Dawley rat brain measured at 0.5 hrs; format: ADME, tissue-based; details: read-out: Ct
Observable: concentration at 0.5 h (ng/g)
Report the figure in ng/g without appending any unit label.

Item: CO[C@H]1/C=C/O[C@@]2(C)Oc3c(C)c(O)c4c(c3C2=O)C2=NC3(CCN(CCn5c([N+](=O)[O-])cnc5C)CC3)NC2=C(NC(=O)/C(C)=C\C=C\[C@H](C)[C@H](O)[C@@H](C)[C@@H](O)[C@@H](C)[C@H](OC(C)=O)[C@@H]1C)C4=O | concentration at 0.5 h: 114

----------
experiment: Drug distribution in Sprague-Dawley rat ascites fluid measured at 2 hrs; type: ADME, tissue-based, Ascitic fluid; details: read-out: Ct
Observable: concentration at 2 h (ng/g)
Report the figure in ng/g without appending any unit label.

Item: CO[C@H]1/C=C/O[C@@]2(C)Oc3c(C)c(O)c4c(c3C2=O)C2=NC3(CCN(CCn5c([N+](=O)[O-])cnc5C)CC3)NC2=C(NC(=O)/C(C)=C\C=C\[C@H](C)[C@H](O)[C@@H](C)[C@@H](O)[C@@H](C)[C@H](OC(C)=O)[C@@H]1C)C4=O | concentration at 2 h: 5270

----------
assay: Drug distribution in Sprague-Dawley rat vaginal tissue measured at 2 hrs; assay type: ADME, tissue-based, Vagina; conditions: female, read-out: Ct
Observable: concentration at 2 h

Item: CO[C@H]1/C=C/O[C@@]2(C)Oc3c(C)c(O)c4c(c3C2=O)C2=NC3(CCN(CCn5c([N+](=O)[O-])cnc5C)CC3)NC2=C(NC(=O)/C(C)=C\C=C\[C@H](C)[C@H](O)[C@@H](C)[C@@H](O)[C@@H](C)[C@H](OC(C)=O)[C@@H]1C)C4=O | concentration at 2 h: 5900 ng/g

----------
test: AUC in C57BL/6 mouse at 5 mg/kg, iv; assay type: ADME, organism-based; design: dose 5 mg/kg, route iv; conditions: in vivo
Observable: AUC

Item: CO[C@H]1/C=C/O[C@@]2(C)Oc3c(C)c(O)c4c(c3C2=O)C2=NC3(CCN(CCn5c([N+](=O)[O-])cnc5C)CC3)NC2=C(NC(=O)/C(C)=C\C=C\[C@H](C)[C@H](O)[C@@H](C)[C@@H](O)[C@@H](C)[C@H](OC(C)=O)[C@@H]1C)C4=O [RIFASUTENIZOL] | AUC: 3760 ng·h/mL

----------
assay: Drug distribution in Sprague-Dawley rat ascites fluid measured at 12 hrs; format: ADME, tissue-based, Ascitic fluid; details: read-out: Ct
Observable: concentration at 12 h (ng/g)
Report the figure in ng/g without appending any unit label.

Item: CO[C@H]1/C=C/O[C@@]2(C)Oc3c(C)c(O)c4c(c3C2=O)C2=NC3(CCN(CCn5c([N+](=O)[O-])cnc5C)CC3)NC2=C(NC(=O)/C(C)=C\C=C\[C@H](C)[C@H](O)[C@@H](C)[C@@H](O)[C@@H](C)[C@H](OC(C)=O)[C@@H]1C)C4=O [RIFASUTENIZOL] | concentration at 12 h: 84.5

----------
Items are presented alongside their recorded MIC.
system: Helicobacter pylori; assay: Antibacterial activity against Helicobacter pylori ATCC 700392; type: functional
Report the figure in µg/mL without appending any unit label.

Some molecules with recorded MIC:
>  <Molecule>
CO[C@H]1/C=C/O[C@@]2(C)Oc3c(C)c(O)c4c(c3C2=O)C2=NC3(CCN(CC5(C)Cn6cc([N+](=O)[O-])nc6O5)CC3)NC2=C(NC(=O)/C(C)=C\C=C\[C@H](C)[C@H](O)[C@@H](C)[C@@H](O)[C@@H](C)[C@H](OC(C)=O)[C@@H]1C)C4=O (stereo partly drawn)

>  <Observed result>
0.03

$$$$
>  <Molecule>
CO[C@H]1/C=C/O[C@@]2(C)Oc3c(C)c(O)c4c(c3C2=O)C2=NC3(CCN(CC(=O)Nc5ncc([N+](=O)[O-])s5)CC3)NC2=C(NC(=O)/C(C)=C\C=C\[C@H](C)[C@H](O)[C@@H](C)[C@@H](O)[C@@H](C)[C@H](OC(C)=O)[C@@H]1C)C4=O

>  <Observed result>
0.004

$$$$
>  <Molecule>
CO[C@H]1/C=C/O[C@@]2(C)Oc3c(C)c(O)c4c(O)c(c(/C=N/N5CCN(CCn6c([N+](=O)[O-])cnc6C)CC5)c(O)c4c3C2=O)NC(=O)/C(C)=C\C=C\[C@H](C)[C@H](O)[C@@H](C)[C@@H](O)[C@@H](C)[C@H](OC(C)=O)[C@@H]1C

>  <Observed result>
0.25

$$$$
>  <Molecule>
C[C@]1(COc2ccc(N3CCC(Oc4ccc(OC(F)(F)F)cc4)CC3)cc2)Cn2cc([N+](=O)[O-])nc2O1

>  <Observed result>
2

$$$$
>  <Molecule>
CO[C@H]1/C=C/O[C@@]2(C)Oc3c(C)c(O)c4c(O)c(c(N5CCN(Cc6ccc(CO[C@@H]7COc8nc([N+](=O)[O-])cn8C7)cc6)CC5)c(O)c4c3C2=O)NC(=O)/C(C)=C\C=C\[C@H](C)[C@H](O)[C@@H](C)[C@@H](O)[C@@H](C)[C@H](OC(C)=O)[C@@H]1C

>  <Observed result>
0.5

$$$$
>  <Molecule>
CO[C@H]1/C=C/O[C@@]2(C)Oc3c(C)c(O)c4c(O)c(c(N5CCN(C(=O)CO[C@@H]6COc7nc([N+](=O)[O-])cn7C6)CC5)c(O)c4c3C2=O)NC(=O)/C(C)=C\C=C\[C@H](C)[C@H](O)[C@@H](C)[C@@H](O)[C@@H](C)[C@H](OC(C)=O)[C@@H]1C

>  <Observed result>
4

$$$$
>  <Molecule>
CO[C@H]1/C=C/O[C@@]2(C)Oc3c(C)c(O)c4c(=O)c(c5oc6cc(N7CCN(CC(C)C)CC7)cc(O)c6nc-5c4c3C2=O)NC(=O)/C(C)=C\C=C\[C@H](C)[C@H](O)[C@@H](C)[C@@H](O)[C@@H](C)[C@H](OC(C)=O)[C@@H]1C [RIFALAZIL]

>  <Observed result>
0.002

$$$$

# evaluate next
Item: CO[C@H]1/C=C/O[C@@]2(C)Oc3c(C)c(O)c4c(O)c(c5c(nc6cc(C)ccn65)c4c3C2=O)NC(=O)/C(C)=C\C=C\[C@H](C)[C@H](O)[C@@H](C)[C@@H](O)[C@@H](C)[C@H](OC(C)=O)[C@@H]1C [RIFAXIMIN] | MIC: 1

----------
assay: Drug distribution in Sprague-Dawley rat ascites fluid measured at 6 hrs; format: ADME, tissue-based, Ascitic fluid; settings: read-out: Ct
Observable: concentration at 6 h (ng/g)
Report the figure in ng/g without appending any unit label.

Item: CO[C@H]1/C=C/O[C@@]2(C)Oc3c(C)c(O)c4c(c3C2=O)C2=NC3(CCN(CCn5c([N+](=O)[O-])cnc5C)CC3)NC2=C(NC(=O)/C(C)=C\C=C\[C@H](C)[C@H](O)[C@@H](C)[C@@H](O)[C@@H](C)[C@H](OC(C)=O)[C@@H]1C)C4=O [RIFASUTENIZOL] | concentration at 6 h: 3480

----------
assay: Drug distribution in Sprague-Dawley rat large intestine content measured at 2 hrs; type: ADME, tissue-based; conditions: read-out: Ct
Observable: concentration at 2 h (ng/g)
Report the figure in ng/g without appending any unit label.

Item: CO[C@H]1/C=C/O[C@@]2(C)Oc3c(C)c(O)c4c(c3C2=O)C2=NC3(CCN(CCn5c([N+](=O)[O-])cnc5C)CC3)NC2=C(NC(=O)/C(C)=C\C=C\[C@H](C)[C@H](O)[C@@H](C)[C@@H](O)[C@@H](C)[C@H](OC(C)=O)[C@@H]1C)C4=O | concentration at 2 h: 1170

----------
assay: Drug distribution in Sprague-Dawley rat gums measured at 2 hrs; type: ADME, tissue-based, Gingiva; details: read-out: Ct
Observable: concentration at 2 h (ng/g)
Report the figure in ng/g without appending any unit label.

Item: CO[C@H]1/C=C/O[C@@]2(C)Oc3c(C)c(O)c4c(c3C2=O)C2=NC3(CCN(CCn5c([N+](=O)[O-])cnc5C)CC3)NC2=C(NC(=O)/C(C)=C\C=C\[C@H](C)[C@H](O)[C@@H](C)[C@@H](O)[C@@H](C)[C@H](OC(C)=O)[C@@H]1C)C4=O | concentration at 2 h: 6040
